target: UniProt:P29274; assay: EC50 at the adenosine A2A receptor
Sequence (P29274 whole entry): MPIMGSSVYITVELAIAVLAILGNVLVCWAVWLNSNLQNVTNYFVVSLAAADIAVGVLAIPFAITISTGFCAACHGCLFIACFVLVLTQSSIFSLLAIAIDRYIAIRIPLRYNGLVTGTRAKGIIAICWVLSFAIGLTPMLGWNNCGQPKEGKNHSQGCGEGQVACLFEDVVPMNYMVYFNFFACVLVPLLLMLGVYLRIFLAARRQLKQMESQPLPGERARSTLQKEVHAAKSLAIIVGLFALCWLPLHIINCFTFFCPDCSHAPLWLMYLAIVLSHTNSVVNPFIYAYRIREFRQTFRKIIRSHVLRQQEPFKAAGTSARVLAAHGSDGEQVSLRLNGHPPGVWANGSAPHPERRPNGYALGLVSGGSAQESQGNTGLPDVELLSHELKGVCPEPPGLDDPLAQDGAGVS
readout: EC50

Ask | If you can, please state the reported EC50 value of COc1nc(N)c2ncn([C@@H]3O[C@H](CO)[C@@H](O)[C@H]3O)c2n1 .
Reply | ~1000 nM
